Reference for the values: patent US20260374766A1

- targetOrTestSystem: p53 Y220C (Homo sapiens, UniProt P04637, Y220C)
- assayProtocol: Luciferase Reporter Assay (Luc), p53 response element, NClH1299 cells with inducible p53 Y220C
- Assay type: cell-based
- conditionsUsed: luciferase reporter, NClH1299 inducible p53 Y220C, 6 hour; 10 uM tool compound as positive control
measurementLabel: Emax

In [3]: df
Out[3]:
                                    compound   obsvalue
 0  CNC(=O)c1ccc(NCC#Cc2nc3c(NC4CCN(C)CC4)cccn3c2SC(F)(F)F)c(OC)c1 [Example 129]  80 to 90%
 1  CNC(=O)c1ccc(OC)c(NCC#Cc2nc3c(N[C@@H]4CNC[C@@H]4F)cccn3c2SC(F)(F)F)c1 [Example 152]  70 to 80%
 2  CNC(=O)c1ccc(N[C@@H](C)C#Cc2nc3c(N[C@@H]4CCN(C)C[C@@H]4F)cccn3c2SC(F)(F)F)c(OC)c1 [Example 134]  70 to 80%
 3  COc1cc(S(C)(=O)=O)ccc1NCC#Cc1nc2c(N[C@@H]3CCNC[C@@H]3F)cccn2c1CC(F)(F)F [Example 8]  70 to 80%
 4  CNC(=O)c1ccc(NCC#Cc2nc3c(N[C@H]4CCNC(=O)C4)cccn3c2SC(F)(F)F)c(OC)c1 [Example 174]  80 to 90%
 5  COc1cc(S(=O)(=O)N(C)C)ccc1NCC#Cc1nc2c(N[C@@H]3CCN(C)C[C@@H]3F)cccn2c1CC(F)(F)F [Example 65]  70 to 80%
 6  CNC(=O)c1ccnc(NCC#Cc2nc3c(N[C@@H]4CCN(C)C[C@@H]4F)cccn3c2SC(F)(F)F)c1 [Example 150]      < 70%
 7  COCCN1CCC(Nc2cccn3c(CC(F)(F)F)c(C#CCNc4ccc(S(C)(=O)=O)cc4OC)nc23)CC1 [Example 113]      < 70%
 8  CN1CC[C@@H](Nc2cccn3c(CC(F)(F)F)c(C#CCNc4ccc(S(C)(=O)=O)cc4)nc23)[C@@H](F)C1 [Example 76]  70 to 80%
 9  CNC(=O)c1ccc(OC)c(NCC#Cc2nc3c(N[C@@H]4CCN(C)C[C@@H]4F)cc(F)cn3c2SC(F)(F)F)c1 [Example 154]  70 to 80%
10  COc1cc2c(cc1NCC#Cc1nc3c(N[C@@H]4CCN(C)C[C@@H]4F)cccn3c1CC(F)(F)F)CCNC2=O [Example 110]  80 to 90%
11  CNC(=O)c1ccc(OC)c(NCC#Cc2nc3c(N[C@@H]4CCN(C)C[C@@H]4F)cccn3c2CC(F)(F)F)n1 [Example 213]  70 to 80%
12  CNC(=O)c1ccc(OC)c(NCC#Cc2nc3c(N[C@@H]4CCN(C)C[C@@H]4F)cccn3c2SC(F)(F)F)c1 [Example 107]  80 to 90%
13  CNC(=O)c1cc(OC)c(NCC#Cc2nc3c(N[C@@H]4CCN(C)C[C@@H]4F)cccn3c2SC(F)(F)F)cc1Cl [Example 121]      > 90%
14  CCNC(=O)c1ccc(NCC#Cc2nc3c(N[C@@H]4CCN(C)C[C@@H]4F)cccn3c2CC(F)(F)F)c(OC)c1 [Example 47]  70 to 80%
15  COc1cc(S(=O)(=O)C2CC2)ccc1NCC#Cc1nc2c(N[C@@H]3CCN(C)C[C@@H]3F)cccn2c1SC(F)(F)F [Example 81]  80 to 90%
16  CNC(=O)c1ccc(OC)c(NCC#Cc2nc3c(N[C@@H]4C[C@H]5CC[C@@H]([C@@H]4F)N5C)cccn3c2SC(F)(F)F)c1 [Example 199]  70 to 80%
17  CNC(=O)c1ccc(NCC#Cc2nc3c(N[C@@H]4CCNC(=O)C4)cccn3c2SC(F)(F)F)c(OC)c1 [Example 175]      < 70%
18  CNC(=O)c1ccc(NCC#Cc2cn3c(N[C@@H]4CCN(C)C[C@@H]4F)cccc3c2SC(F)(F)F)c(OC)c1 [Example 139]      > 90%
19  CNC(=O)c1cc(NCC#Cc2nc3c(N[C@@H]4CCN(C)C[C@@H]4F)cccn3c2SC(F)(F)F)c(OC)cc1F [Example 170]  80 to 90%
20  COc1cc(S(=O)(=O)C2CC2)ccc1NCC#Cc1nc2c(N[C@@H]3CCN(C)C[C@@H]3F)cccn2c1CC(F)(F)F [Example 67]  70 to 80%
21  COc1cc(S(C)(=O)=O)ccc1NCC#Cc1nc2c(N[C@@H]3C[C@H]4CC[C@H](N4)[C@@H]3F)cccn2c1SC(F)(F)F [Example 131]  70 to 80%
22  CNC(=O)c1ccc(NCC#Cc2nc3c(NC4CCN(C)CC4)cc(NC(=O)CCl)cn3c2CC(F)(F)F)c(OC)c1 [Example 91]      < 70%
23  CNC(=O)c1ccc(NCC#Cc2nc3c(NCC4(F)CNC4)cccn3c2SC(F)(F)F)c(OC)c1 [Example 197]  80 to 90%
24  CC#Cc1nc2c(NC3CCN(C)CC3)cccn2c1CC(F)(F)F [Example 19]      < 70%
25  COc1cc(C(=O)N2CCOCC2)ccc1NCC#Cc1nc2c(N[C@@H]3CCN(C)C[C@@H]3F)cccn2c1SC(F)(F)F [Example 119]  80 to 90%
26  CNC(=O)c1ccc(OC)c(NCC#Cc2cc3c(N[C@@H]4CCN(C)C[C@@H]4F)nccn3c2SC(F)(F)F)n1 [Example 207]      > 90%
27  CNC(=O)c1ccc(NCC#Cc2nc3c(NC4CCN(C)CC4)cc(NC(=O)OC)cn3c2CC(F)(F)F)c(OC)c1 [Example 45]      < 70%
